Hello, the source for this data is patent US12146880B2, in case you need it.

Measured estimated 1D diffusion constants, D, listed per entry.
test system: phage λ DNA; assay: Sliding assay: total internal reflection fluorescence microscopy of single TMR-labeled peptides on flow-stretched phage λ DNA; format: biochemical, bacteriophage λ; settings: peptides diffusing along λ-DNA, low salt buffer (FIG. 6)
Primed or numbered codes have the meaning given here. Ends that are not written are not given here. TMR″ = tetramethylrhodamine label
Use million bp²/s as the unit, but write only the number.

Consider the reported estimated 1D diffusion constants, D for these substances:
GRKKRRQRRRPPQ (also: TMR label, place not given here) [TAT] ... 21
FHHHHH ... 14.9
(K)13: TMR-labeled lysine homopolymer of 13 residues, SEQ ID NO: 52 (KKKKKKKKKKKKK; also: TMR-labeled, place not given here) ... 17.3

Now consider the entry below.
Prompt: Field request: estimated 1D diffusion constants, D | item: STSRHKKLMFKTE ({TMR″}-STSRHKKLMFKTE) [C-terminal sequence of p53]
Response: 17.3
